TESTED TARGET: LPA3 (Homo sapiens)
Sequence (Q9UBY5 1-353): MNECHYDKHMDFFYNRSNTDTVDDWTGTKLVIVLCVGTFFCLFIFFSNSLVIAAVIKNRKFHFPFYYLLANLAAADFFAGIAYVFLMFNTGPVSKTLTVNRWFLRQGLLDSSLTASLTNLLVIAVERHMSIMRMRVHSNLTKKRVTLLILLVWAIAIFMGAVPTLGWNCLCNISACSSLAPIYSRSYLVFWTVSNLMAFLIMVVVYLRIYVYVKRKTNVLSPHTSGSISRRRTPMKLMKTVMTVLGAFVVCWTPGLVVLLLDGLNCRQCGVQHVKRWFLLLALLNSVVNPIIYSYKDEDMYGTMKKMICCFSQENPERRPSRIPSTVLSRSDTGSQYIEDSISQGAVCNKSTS
EXPERIMENT DESCRIPTION: Ca2+ transients in RH7777 cells expressing LPA3 (agonist / inhibition of LPA response)
TEST CONDITIONS: read-out: LPA3 EC50
Assign pEC50 to each entry below.
Bear in mind: pEC50 is minus log10 of a mol/L concentration; give just that figure.

Hello, please tell me recorded pEC50 for this one: CCCCCCCC/C=C\CCCCCCCC1OCC(COP([O-])(O)=S)O1.[K+] (stereo not drawn) 6.19

Hello, please tell me recorded pEC50 for this one: CCCCCCCCOC[C@H](COP(=O)(O)O)OCCCCCCCC [Cpd 12b, (2R)-APA 8:0] 6.79

Hello, please tell me recorded pEC50 for this one: CCCCCCCCOC[C@H](COP(O)(O)=S)OCCCCCCCC [Cpd 13b, 2(R)-ATPA 8:0] 8.52

* * *

TESTED TARGET: UniProt:Q9UBY5
EXPERIMENT DESCRIPTION: Ca2+ transients in RH7777 cells expressing LPA3 (agonist / inhibition of LPA response)
TEST CONDITIONS: Tables 2, 4, 6
ASSAY ENDPOINT: LPA3 effect in words

Under UniProt:Q9UBY5: report LPA3 effect in words of CCCCCCCCOC[C@H](COP(=O)(O)O)OCCCCCCCC [Cpd 12b, (2R)-APA 8:0] . Full agonist

Under UniProt:Q9UBY5: report LPA3 effect in words of CCCCCCCCc1ccc(CCCCCCCOP(O)(O)=S)cc1 . Partial agonist

Under UniProt:Q9UBY5: report LPA3 effect in words of CCCCCCCCOC[C@H](COP(O)(O)=S)OCCCCCCCC [Cpd 13b, 2(R)-ATPA 8:0] . Full agonist

Under UniProt:Q9UBY5: report LPA3 effect in words of CCCCCCCC/C=C\CCCCCCCC1OCC(COP([O-])(O)=S)O1.[K+] (centres unmarked) . Partial agonist

---
Under UniProt:Q9UBY5: report LPA3 effect in words of CCCCCCCCc1ccc(CCCCCCC2OCC(COP(=O)(O)O)O2)cc1 (centres unmarked) . Partial agonist

* * *

Assign pEC50 to each entry below.
TESTED TARGET: LPA3 (Homo sapiens)
EXPERIMENT DESCRIPTION: Ca2+ transients in RH7777 cells expressing LPA3 (agonist / inhibition of LPA response)
Bear in mind: pEC50 is minus log10 of a mol/L concentration; give just that figure.

Hello, please tell me recorded pEC50 for this one: CCCCCCCCc1ccc(CCCCCCCOP(O)(O)=S)cc1 6.07

Hello, please tell me recorded pEC50 for this one: CCCCCCCCc1ccc(CCCCCCC2OCC(COP(=O)(O)O)O2)cc1 (centres unmarked) [Analog 14] 6.16

Hello, please tell me recorded pEC50 for this one: CCCCCCCC/C=C\CCCCCCC[C@@H]1OC[C@H](COP(O)(O)=S)O1 [Analog 22] 6.69

Hello, please tell me recorded pEC50 for this one: CCCCCCCC/C=C\CCCCCCCC1OCC(COP([O-])(O)=S)O1.[K+] (centres unmarked) [Analog 6] 6.19

# credit: patent US20060270634A1
